target: Tyrosyl-tRNA synthetase, putative (Trypanosoma cruzi (strain CL Brener)) (UniProt Q4DSP6); test: Trypanosoma cruzi tyrosyl tRNA synthetase (TcYRS) SOP; format: functional; parameters: scale not given: direction of the effect not stated beside the values; conditions: 30 µM
Sequence (Q4DSP6 as listed by the source): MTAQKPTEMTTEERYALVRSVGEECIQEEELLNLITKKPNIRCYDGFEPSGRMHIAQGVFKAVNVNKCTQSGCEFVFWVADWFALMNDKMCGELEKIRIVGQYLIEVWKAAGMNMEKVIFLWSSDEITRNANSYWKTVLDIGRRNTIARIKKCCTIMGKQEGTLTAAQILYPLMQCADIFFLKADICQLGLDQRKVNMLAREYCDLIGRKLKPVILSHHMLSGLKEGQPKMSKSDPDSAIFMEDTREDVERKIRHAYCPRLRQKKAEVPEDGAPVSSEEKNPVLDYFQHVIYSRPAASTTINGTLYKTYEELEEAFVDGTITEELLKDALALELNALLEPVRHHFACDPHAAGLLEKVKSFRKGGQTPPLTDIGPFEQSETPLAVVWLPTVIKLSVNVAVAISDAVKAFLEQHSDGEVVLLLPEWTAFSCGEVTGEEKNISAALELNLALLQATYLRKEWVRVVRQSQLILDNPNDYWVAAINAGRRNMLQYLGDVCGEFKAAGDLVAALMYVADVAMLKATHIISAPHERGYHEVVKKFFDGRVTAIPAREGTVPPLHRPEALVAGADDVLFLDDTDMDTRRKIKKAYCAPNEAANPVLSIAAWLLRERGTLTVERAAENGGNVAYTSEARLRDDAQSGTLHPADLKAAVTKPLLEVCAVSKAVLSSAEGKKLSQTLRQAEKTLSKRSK
Quick reference: Percent Effect of the listed items.
Kindly answer with a numeric value in %, unit omitted.

Consider the following illustrative entries.
C1CC(CN2CCO[C@H]3[C@H](OCC4CC4)CC[C@@H]32)CCO1	3.66
Cc1nc(O)c2nnn(C[C@H]3CCCN3C(=O)c3cccc(F)c3)c2n1	1.3
COCCNC(=O)[C@H]1CN(c2nnc(C)s2)C[C@H]2OCC[C@@H]12	1.28
Cn1cc(CNCC2Cn3nnc(-c4ccccc4)c3CO2)cn1 (stereo unspecified)	10.3
Cc1ccc(C(=O)N2CCC3(CC2)COC(COc2ccccn2)C3)o1 (stereo unspecified)	12.8

For `CC(C)OCCOCc1cccc(NC(=O)NCCn2ccnc2)c1` , what is its reported Percent Effect?
3.7
